System: picryl chloride-induced dermatitis
Assay: Inhibition of picryl chloride-induced dermatitis (type IV allergic inflammation model, ear swelling, Asherson's method)
Type: in vivo, ICR male mice
Conditions: concentration 0.75% (w/v) in acetone, applied on ear just after challenge; ear thickness at 24 h
Record T whenever Inhibition (%) of picryl chloride-induced dermatitis is at 70% or higher; record F when lower.

Compound	Class
CNc1c(NC(=O)C2(C)CCc3c(C)c(O)c(C)c(C)c3O2)c(=O)n(C)c(=O)n1-c1ccccc1 (stereo not drawn) [Example 11]	F
Cc1c(C)c2c(c(C)c1O)CC[C@](C)(C(=O)Nc1c(N)n(-c3ccccc3)c(=O)n(C)c1=O)O2 [Example 2]	F
Cc1c(C)c2c(c(C)c1O)CCC(C)(CNc1c(N)n(-c3ccccc3)c(=O)n(C)c1=O)O2 (stereo not drawn) [Example 17]	T
CC(=O)Oc1c(C)c(C)c2c(c1C)CCC(C)(C(=O)Nc1c(N)n(-c3ccccc3)c(=O)n(C)c1=O)O2 (stereo not drawn) [Example 14]	F
